Assay: Measurement of Liposomal pKa (TNS fluorescence) of LNP without nucleic acid
Type: physicochemical
Conditions: cationic lipid:DOPC:Chol=52.5:7.5:40 + about 1.5 mol DMG-PEG2k, pH at which relative TNS fluorescence intensity was 50%
Protocol: Lipid nano particles (LNP) without containing nucleic acid were used for the evaluation of Liposomal pKa. […] 20 mM Citrate buffer, sodium phosphate buffer, and tris HCl buffer, each containing NaCl at a final concentration of 150 mM and adjusted to various pHs within the range of pH 3.0 to 10.0, were prepared. […] The fluorescence intensity (excitation: 321 nm/emission: 447 nm) was measured using a plate reader (manufactured by TECAN). […]
MEASUREMENT_NAME: pKa
One number for each entry.

Worked set:
COMPOUND: CCCCCCCC/C=C\CCCCCCCC(=O)Oc1ccc(CC(=O)OCCOC(=O)C(CSSCC(NC(=O)CN(C)CC)C(=O)OCCOC(=O)Cc2ccc(OC(=O)CCCCCCC/C=C\CCCCCCCC)cc2)NC(=O)CN(C)CC)cc1 (stereo not shown) [Example 2]
pKa: 6.4
//
COMPOUND: CCCCCCCC/C=C\CCCCCCCC(=O)Oc1ccc(CC(=O)OCCOC(=O)C(CSSCC(NC(=O)CN(C)C)C(=O)OCCOC(=O)Cc2ccc(OC(=O)CCCCCCC/C=C\CCCCCCCC)cc2)NC(=O)CN(C)C)cc1 (stereo not shown) [Example 1]
pKa: 6.6
//
COMPOUND: CCCCCCCC/C=C\CCCCCCCC(=O)Oc1ccc(CC(=O)OCCOC(=O)C(CSSCC(NC(=O)CN(CCC)CCC)C(=O)OCCOC(=O)Cc2ccc(OC(=O)CCCCCCC/C=C\CCCCCCCC)cc2)NC(=O)CN(CCC)CCC)cc1 (stereo not shown) [Example 5]
pKa: 5.3

Incoming: Determine its reported pKa: CCCCCCCC/C=C\CCCCCCCC(=O)Oc1ccc(CC(=O)OCCOC(=O)C(CSSCC(NC(=O)CN2CCCCC2)C(=O)OCCOC(=O)Cc2ccc(OC(=O)CCCCCCC/C=C\CCCCCCCC)cc2)NC(=O)CN2CCCCC2)cc1 (stereo not shown) [Example 7]
Outgoing: 6

Numbers sourced from patent US12622878B2.
